# Target: His-tagged KRAS G12D protein (Homo sapiens (Human), UniProt P01116, G12D)
# Sequence (P01116 other isoform, or with tags, fused parts or gaps G12D): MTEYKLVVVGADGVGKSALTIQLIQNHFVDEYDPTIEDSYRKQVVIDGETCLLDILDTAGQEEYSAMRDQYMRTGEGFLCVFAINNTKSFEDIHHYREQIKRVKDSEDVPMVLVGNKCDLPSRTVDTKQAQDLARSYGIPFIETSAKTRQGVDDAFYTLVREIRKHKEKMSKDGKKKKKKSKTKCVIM
# Test description: KRAS G12D TR-FRET Assay
# Format: binding
# Measurement conditions: read-out: KRAS G12D Binding IC50
# Description: Compounds of interest were prepared in a dose-response titration in DMSO, and 80 nL were added via Labcyte Echo to each well of a 384-well plate (Perkin Elmer 6008280). […] Plates were read using PerkinElmer EnVision (ex: 320 nm, em1: 665 nm, em2: 615 nm) and em1/em2 data was used to generate curve fits using a 4-parameter logistic model to calculate IC50 values.
pIC50: −log10 of the molar value.
Endpoint label: pIC50

Can you share its pIC50? I mean this molecule: O=C1COCCCc2c(Cl)cc3[nH]ncc3c2-c2ncc3c(nc(OC[C@@]45CCCN4C[C@H](F)C5)nc3c2F)N2CCCC[C@H](C2)N1 [Example 272]
7.96

Can you share its pIC50? I mean this molecule: Cc1cc2[nH]ncc2c2c1CCCCC(=O)N1CC3CCN(CC3C1)c1nc(OC[C@@]34CCCN3C[C@H](F)C4)nc3c(F)c-2ncc13 (mixture of isomers) [Example 57]
6.66

Can you share its pIC50? I mean this molecule: O=C1OCCc2c(Cl)cc3[nH]ncc3c2-c2cc3nc(OC[C@@]45CCCN4C[C@H](F)C5)nc(c3nn2)N2CCC[C@]3(C2)C[C@H](C3)O1 [Example 357]
7.85

Can you share its pIC50? I mean this molecule: Cc1cc2[nH]ncc2c2c1[C@H]1C[C@H]1COCC[C@@H]1CCCN(C1)c1nc(OC[C@@]34CCCN3C[C@H](F)C4)nc3c(F)c-2ncc13 [Example 153]
8.52

Can you share its pIC50? I mean this molecule: CN1C(=O)COCC[C@@H]2CCc3cc4[nH]ncc4c(c32)-c2ncc3c(nc(OC[C@@]45CCCN4C[C@H](F)C5)nc3c2F)N2CCC[C@@H]1C2 [Example 279]
6.48

Can you share its pIC50? I mean this molecule: C[C@@]12CCCCN(C1)c1nc(OC[C@@]34CCCN3C[C@H](F)C4)nc3c(F)c(ncc13)-c1c(c(Cl)cc3[nH]ncc13)CCCOC(=O)N2 [Example 290]
8.40

1. O=C1CCCCc2c(Cl)cc3[nH]ncc3c2-c2ncc3c(nc(OC[C@@]45CCCN4C[C@H](F)C5)nc3c2F)N2CCC3CN1[C@H]3C2 (mixture of isomers) [Example 164]
2. O=C1OCCc2c(F)ccc3cc(O)cc(c23)-c2ncc3c(nc(OC[C@@]45CCCN4C[C@H](F)C5)nc3c2F)N2CCOC[C@H](C2)O1 [Example 361]
3. O=C1N[C@@H]2CCCCN(C2)c2nc(OC[C@@]34CCCN3C[C@H](F)C4)nc3c(F)c(ncc23)-c2c3c(cc4[nH]ncc24)CC[C@@H]3CCO1 [Example 302]
4. C[C@]12CCCN(C1)c1nc(OC[C@@]34CCCN3C[C@H](F)C4)nc3c(F)c(ncc13)-c1cccc3ccc(F)c(c13)CCOC(=O)N2 [Example 78]
Order the records so the highest pIC50 appears first and the lowest last. Returns: the labels arranged in the requested order.
2, 1, 3, 4
(2: 8.52, 1: 8.00, 3: 5.90, 4: 5.42)

1. Fc1c2ncc3c(nc(OC[C@@]45CCCN4C[C@H](F)C5)nc13)N1CCC[C@H](C1)Cn1ncc(n1)CCc1c(Cl)cc3[nH]ncc3c1-2 [Example 156]
2. O=C1CCCCc2c(Cl)cc3[nH]ncc3c2-c2ncc3c(nc(OC[C@@]45CCCN4C[C@H](F)C5)nc3c2F)N2CCC[C@]3(C2)C[C@H](C3)N1 [Example 273]
Consider 1 and 2 . Which of these has its pIC50 at a higher number? # respond with the chosen item's label
2

---

# Target: GDP-bound KRAS protein (aa 1-169), containing both G12D and C118A amino acid substitutions (Homo sapiens (Human), UniProt P01116, C118A/G12D)
# Sequence (P01116 other isoform, or with tags, fused parts or gaps G12D/C118A): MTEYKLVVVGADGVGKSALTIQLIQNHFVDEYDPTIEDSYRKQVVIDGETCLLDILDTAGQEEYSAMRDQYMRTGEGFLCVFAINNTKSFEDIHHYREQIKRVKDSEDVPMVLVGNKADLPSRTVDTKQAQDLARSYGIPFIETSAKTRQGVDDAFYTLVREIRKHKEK
# Test description: KRAS G12D Coupled Nucleotide Exchange Assay
# Type: biochemical
# Measurement conditions: read-out: KRAS G12D Coupled Exchange IC50
Endpoint label: IC50 (nM)

Can you share its IC50? I mean this compound: C[C@@]12CCCN(C1)c1nc(OC[C@@]34CCCN3C[C@H](F)C4)nc3c(F)c(c(F)cc13)-c1cc(O)cc3ccc(F)c(c13)CCCC(=O)N2 [Example 15, bis(2,2,2-trifluoroacetate)]
3

P. O=C1OCCCc2c(Cl)cc3[nH]ncc3c2-c2c(F)cc3c(nc(OC[C@@]45CCCN4C[C@H](F)C5)nc3c2F)N2CCOC[C@H](C2)O1 [Example 187]
Q. Fc1c2ncc3c(nc(OC[C@@]45CCCN4C[C@H](F)C5)nc13)N1CCO[C@]3(C1)C[C@@H](C3)OCCCCc1c(Cl)cc3[nH]ncc3c1-2 (single isomer, unassigned)
Consider P and Q . Which of these has its IC50 at a higher number? # respond with the chosen item's label
Q

---

# Target: His-tagged KRAS G12D protein (Homo sapiens (Human), UniProt P01116, G12D)
# Test description: KRAS G12D TR-FRET Assay
# Format: binding
# Measurement conditions: TR-FRET; read-out: KRAS G12D Binding
pIC50: −log10 of the molar value.
Endpoint label: pIC50

What reported pIC50 corresponds to Cc1cc2[nH]ncc2c2c1CCc1cnc(o1)[C@@H](O)[C@@H]1CCCN(C1)c1nc(OC[C@@]34CCCN3C[C@H](F)C4)nc3c(F)c-2ncc13 on His-tagged KRAS G12D protein (Homo sapiens (Human), UniProt P01116, G12D)?
8.15

What reported pIC50 corresponds to CN(C)CC1(COc2nc3c4cnc(c(F)c4n2)-c2c(c(Cl)cc4[nH]ncc24)CCCCOCC2(F)CCCCN3C2)CC1 (stereo in doubt) [Example 401] on His-tagged KRAS G12D protein (Homo sapiens (Human), UniProt P01116, G12D)?
8.30

What reported pIC50 corresponds to Fc1c2ncc3c(nc(OC[C@@]45CCCN4C[C@H](F)C5)nc13)N1CCO[C@H](C1)c1coc(n1)CCCc1c(Cl)cc3[nH]ncc3c1-2 on His-tagged KRAS G12D protein (Homo sapiens (Human), UniProt P01116, G12D)?
8.30

A. CC12CN(CCO1)c1nc(OC[C@@]34CCCN3C[C@H](F)C4)nc3c(F)c(ncc13)-c1c(c(Cl)cc3[nH]ncc13)CCCc1nc2co1 (mixture of isomers)
B. OC1c2ncc(o2)CCc2c(Cl)cc3[nH]ncc3c2-c2ncc3c(nc(OC[C@@]45CCCN4C[C@H](F)C5)nc3c2F)N2CCO[C@@H]1C2 (stereo in doubt)
Consider A and B . Which of these has its pIC50 at a higher number? # respond with the chosen item's label
A
(A: 6.81, B: 5.93)

---

# Target: His-tagged KRAS G12D protein (Homo sapiens (Human), UniProt P01116, G12D)
# Test description: KRAS G12D TR-FRET Assay
# Format: binding
# Measurement conditions: read-out: KRAS G12D Binding IC50
pIC50: −log10 of the molar value.
Endpoint label: pIC50

Can you share its pIC50? I mean this compound: CN1CCC[C@H]1COc1nc2c3cnc(c(F)c3n1)-c1c(c(Cl)cc3[nH]ncc13)CCCOC(=O)O[C@]1(C)COCCN2C1
8.22

Can you share its pIC50? I mean this compound: C[C@@]12CCCCN(C1)c1nc(OC[C@@]34CCCN3C[C@H](F)C4)nc3c(F)c(ncc13)-c1c(c(Cl)cc3[nH]ncc13)CCCCC(=O)N2
8.30

Can you share its pIC50? I mean this compound: C[C@@]12CCCN(C1)c1nc(OC[C@@]34CCCN3C[C@H](F)C4)nc3c(F)c(ncc13)-c1cc(O)cc3ccc(F)c(c13)CCCC(=O)N2 [Example 4, bis(2,2,2-trifluoroacetate)]
8.40

---

# Tested on: MIA PaCa-2 cells
# Test description: MIA PaCa-2 CTG Assay (CellTiter-Glo cell viability)
# Format: cell-based, human
# Measurement conditions: Homo sapiens; Mia PaCa-2, 72 h; second value of the cell; read-out: G12D/C/V Cell Proliferation CTG (72 h) Mia PaCa-2
Endpoint label: IC50 (nM)

Known results for compounds:
Can you share its IC50? I mean this compound: Cc1cc2[nH]ncc2c2c1CCCOC(=O)O[C@@H]1COCCN(C1)c1nc(OC[C@@]34CCCN3C[C@H](F)C4)nc3c(F)c-2ncc13
20

Can you share its IC50? I mean this compound: Cc1cc2[nH]ncc2c2c1CCOC(=O)O[C@H]1C[C@@]3(CCCN(C3)c3nc(OC[C@@H]4C[C@@H](F)CN4C)nc4c(F)c-2ncc34)C1
162

Can you share its IC50? I mean this compound: O=C1OCCc2c(Cl)cc3[nH]ncc3c2-c2ncc3c(nc(OC[C@@]45CCCN4C[C@H](F)C5)nc3c2F)N2CCO[C@]3(C2)C[C@H](C3)O1
7

Can you share its IC50? I mean this compound: Cc1cc2[nH]ncc2c2c1CCCOCC(=O)N1CC[C@@H]3CCN(C[C@@H]31)c1nc(OC[C@@]34CCCN3C[C@H](F)C4)nc3c(F)c-2ncc13
60

Can you share its IC50? I mean this compound: O=C1OCCc2c(F)ccc3cc(O)cc(c23)-c2ncc3c(nc(OC[C@@]45CCCN4C[C@H](F)C5)nc3c2F)N2CCOC[C@H](C2)O1
5

A. Fc1cc2[nH]ncc2c2c1CCCCOC[C@H]1CCCCN(C1)c1nc(OC[C@@]34CCCN3C[C@H](F)C4)nc3c(F)c-2ncc13
B. Cc1cc2[nH]ncc2c2c1CCCOC(=O)O[C@@H]1CCCCN(C1)c1nc(OC[C@@]34CCCN3C[C@H](F)C4)nc3c(F)c-2ncc13
Which entry shows the lesser value of IC50 here, A or B ? # respond with the chosen item's label
B
(B: 50 nM, A: 140 nM)
